# Lookup of reported NFKB2 mRNA expression (normalized to NARS2) keyed by entry
- System: TWEAK-Fn14 signalling pathway, BRV5 cells
- Measurement Description: Cell-based screening of individual peptides, gene expression microarray in TWEAK-stimulated BRV5 cells
- Parameters: species or system human
- Particulars: individual peptides, BRV5 + TWEAK, 450 µM, 6 h; mean of replicate columns
Enter a number only.

Bench note: what NFKB2 mRNA expression (normalized to NARS2) did SWYDHMAGDSSY [Peptide 35] show? 0.02465

Bench note: what NFKB2 mRNA expression (normalized to NARS2) did 13: YSGYFGGFY [Peptide 13] show? 0.05228

Continuing:
Bench note: what NFKB2 mRNA expression (normalized to NARS2) did SGVSTAQLD [Peptide 4] show? 0.04458

Bench note: what NFKB2 mRNA expression (normalized to NARS2) did 1: GNGTDDNSGTSY [Peptide 1] show? 0.03922

Bench note: what NFKB2 mRNA expression (normalized to NARS2) did 42: YNGHVKDD [Peptide 42] show? 0.05504

Bench note: what NFKB2 mRNA expression (normalized to NARS2) did 30: DNGGGNTDIYSE [Peptide 30] show? 0.02657

Bench note: what NFKB2 mRNA expression (normalized to NARS2) did 11: SGVAYQETT [Peptide 11] show? 0.047

Bench note: what NFKB2 mRNA expression (normalized to NARS2) did TKGGGTADA [Peptide 3] show? 0.05335

Bench note: what NFKB2 mRNA expression (normalized to NARS2) did 46: TGYAENV [Peptide 46] show? 0.05417
